# assay-summary: Rat oral pharmacokinetic study
# Type: in vivo, Sprague Dawley rats
# condition-info: Sprague Dawley; male rat, single PO 400 mg/kg of compound 9, 5% TPGS/5% PVP-K30/50 mM Citrate pH 5, analyte 9a in plasma, mean ± SD
value-kind: Tmax

Ask: Using the record for Cc1cc(F)ccc1Oc1cc(C(F)(F)F)ccc1C(=O)Nc1cc[nH]c(=O)c1 [Compound 9a] , report its Tmax.
Reply: 5.67 h

---

# assay-summary: Rat oral pharmacokinetic study
# Type: in vivo, Sprague Dawley rats
# condition-info: Sprague Dawley; male rat, single PO 100 mg/kg of compound 9, 5% TPGS/5% PVP-K30/50 mM Citrate pH 5, analyte 9a in plasma, mean ± SD
value-kind: AUC (ng·h/mL)
The answer is to be given in ng·h/mL; state only the numeric part.

Ask: Which AUC value is on record for Cc1cc(F)ccc1Oc1cc(C(F)(F)F)ccc1C(=O)Nc1cc[nH]c(=O)c1 [Compound 9a] ?
Reply: 24800

These data points were gathered from patent US9163042B2.
